Target: IC-GPCR2 (Homo sapiens, UniProt Q8TDV5, S309L)
Construct: expressed in transfected cells
Sequence (Q8TDV5 whole entry S309L): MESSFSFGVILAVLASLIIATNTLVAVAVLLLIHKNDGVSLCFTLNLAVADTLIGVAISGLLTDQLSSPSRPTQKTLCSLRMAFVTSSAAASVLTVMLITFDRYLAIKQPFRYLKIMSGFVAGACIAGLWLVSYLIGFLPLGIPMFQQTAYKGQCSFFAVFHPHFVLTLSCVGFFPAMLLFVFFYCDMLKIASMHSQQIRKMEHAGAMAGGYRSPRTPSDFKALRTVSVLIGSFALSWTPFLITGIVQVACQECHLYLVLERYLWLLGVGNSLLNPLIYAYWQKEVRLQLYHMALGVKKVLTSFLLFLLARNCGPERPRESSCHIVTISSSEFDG
Test: Stimulation of cAMP in CHO cells stably expressing IC-GPCR2 (HTRF cAMP assay)
Format: cell-based
Details: 0.5 h, 30 minutes, IC-GPCR2 stably expressing CHO cells, read-out: Activity at 10 uM (% change in FRET signal from DMSO control)
Below is a list of entries, each paired with its recorded activation at 10 µM value.
Express the result in % but write the number alone.

Please review the following examples before continuing.
> print(dat)
                                   molecule                                 tested.on           value.kind  assay.value
1  CCc1cnc(N2CCC(c3nc(COc4ccc(S(C)(=O)=O)cc4F)cs3)CC2)nc1 [Example 76]  IC-GPCR2 (Homo sapiens, UniProt Q8TDV5, S309L)  activation at 10 µM           74
2  CCc1cnc(N2CCC(c3nc(COc4ccc(-n5cnnn5)c(Cl)c4)cs3)CC2)nc1 [Example 115]  IC-GPCR2 (Homo sapiens, UniProt Q8TDV5, S309L)  activation at 10 µM           67
3  CCc1cnc(N2CC[C@@H](c3nc(COc4ccc(-n5cnnn5)cc4)cs3)[C@@H](C)C2)nc1 (stereo in doubt) [Example 199]  IC-GPCR2 (Homo sapiens, UniProt Q8TDV5, S309L)  activation at 10 µM           78
4  CCc1cnc(N2CCC(c3nc(COc4ccc(S(C)(=O)=O)cc4)no3)CC2)nc1 [Example 84]  IC-GPCR2 (Homo sapiens, UniProt Q8TDV5, S309L)  activation at 10 µM           59
5  Nc1cnc(N2CCC(c3nc(COc4ccc(-n5cnnn5)cc4)cs3)CC2)nc1 [Example 107]  IC-GPCR2 (Homo sapiens, UniProt Q8TDV5, S309L)  activation at 10 µM           53
6  Clc1cnc(N2CCC(c3nc(COc4ccc(-n5cnnn5)nc4)cs3)CC2)nc1 [Example 184]  IC-GPCR2 (Homo sapiens, UniProt Q8TDV5, S309L)  activation at 10 µM           69
7  COc1ccc(OC(=O)N2CCC(c3nc(COc4ccc(S(C)(=O)=O)cc4)cs3)CC2)cc1 [Example 28]  IC-GPCR2 (Homo sapiens, UniProt Q8TDV5, S309L)  activation at 10 µM           62
8  FC(F)(F)c1cnc(N2CCC(c3nc(COc4ccc(-n5cnnn5)nc4)cs3)CC2)nc1 [Example 185]  IC-GPCR2 (Homo sapiens, UniProt Q8TDV5, S309L)  activation at 10 µM           83

Complete the entry with activation at 10 µM for CC(C)(C)OC(=O)N1CCC(c2nc(COc3ccc(-n4cnnn4)c(F)c3)cs2)CC1 [Example 17]
69

Report activation at 10 µM for O=C(OC1CCCCC1)N1CCC(c2nc(COc3ccc(-n4cnnn4)cc3)cs2)CC1 [Example 147]
56
